Assay: Protein binding
Format: in vitro ADME
From the text: Protein binding of esketamine was approximately 43% to 45%.
observable: fraction unbound

Exercise: What measured fraction unbound goes with `CN[C@]1(c2ccccc2Cl)CCCCC1=O` ?
Key: 0.55 to 0.57

---

Experiment: Pre- and postnatal study, intranasal esketamine, pregnant rats
Format: in vivo, rat
Conditions: female, rat, in vivo, inhaled or intranasal; intranasal; pregnancy and lactation; read-out: NOAEL for maternal toxicity and decreased motor activity during the postweaning period
Experimental: This sensory/motor developmental measure was tested starting on postnatal day (PND) 9, and the effect normalized by PND 19 in treatment groups as compared with PND 14 for the majority of the control animals. There is no NOAEL for this delay in sensory/motor response observed in pups during the preweaning period.
observable: NOAEL
The answer should read as a number with its unit following.

Exercise: Recorded NOAEL for CN[C@]1(c2ccccc2Cl)CCCCC1=O [esketamine] , please?
Key: 4.5 mg/kg/day

---

assay: Clinical pharmacokinetics of esketamine (label); settings: human, plasma, iv
observable: clearance

Exercise: Given the compound `CN[C@]1(c2ccccc2Cl)CCCCC1=O` , what is its reported clearance?
Key: ~1480 mL/min

---

assay: Single-dose neuronal toxicity study, subcutaneous racemic ketamine (label); assay type: in vivo, rat; details: rat, in vivo, sc; single subcutaneous dose; read-out: NOAEL for vacuolation
observable: NOAEL (mg/kg)
// return numeric value only (unit: mg/kg, not printed)

Exercise: Please look up its NOAEL: CNC1(c2ccccc2Cl)CCCCC1=O (racemic)
Key: 15
